# study system: FAK (Homo sapiens, UniProt Q05397)
# Construct: homozygous knock-in of a HiBiT tag (Promega Corporation, Madison, WI) to the C-terminus of the FAK gene in its natural genomic locus; endogenous in cells
# Sequence (Q05397 whole entry): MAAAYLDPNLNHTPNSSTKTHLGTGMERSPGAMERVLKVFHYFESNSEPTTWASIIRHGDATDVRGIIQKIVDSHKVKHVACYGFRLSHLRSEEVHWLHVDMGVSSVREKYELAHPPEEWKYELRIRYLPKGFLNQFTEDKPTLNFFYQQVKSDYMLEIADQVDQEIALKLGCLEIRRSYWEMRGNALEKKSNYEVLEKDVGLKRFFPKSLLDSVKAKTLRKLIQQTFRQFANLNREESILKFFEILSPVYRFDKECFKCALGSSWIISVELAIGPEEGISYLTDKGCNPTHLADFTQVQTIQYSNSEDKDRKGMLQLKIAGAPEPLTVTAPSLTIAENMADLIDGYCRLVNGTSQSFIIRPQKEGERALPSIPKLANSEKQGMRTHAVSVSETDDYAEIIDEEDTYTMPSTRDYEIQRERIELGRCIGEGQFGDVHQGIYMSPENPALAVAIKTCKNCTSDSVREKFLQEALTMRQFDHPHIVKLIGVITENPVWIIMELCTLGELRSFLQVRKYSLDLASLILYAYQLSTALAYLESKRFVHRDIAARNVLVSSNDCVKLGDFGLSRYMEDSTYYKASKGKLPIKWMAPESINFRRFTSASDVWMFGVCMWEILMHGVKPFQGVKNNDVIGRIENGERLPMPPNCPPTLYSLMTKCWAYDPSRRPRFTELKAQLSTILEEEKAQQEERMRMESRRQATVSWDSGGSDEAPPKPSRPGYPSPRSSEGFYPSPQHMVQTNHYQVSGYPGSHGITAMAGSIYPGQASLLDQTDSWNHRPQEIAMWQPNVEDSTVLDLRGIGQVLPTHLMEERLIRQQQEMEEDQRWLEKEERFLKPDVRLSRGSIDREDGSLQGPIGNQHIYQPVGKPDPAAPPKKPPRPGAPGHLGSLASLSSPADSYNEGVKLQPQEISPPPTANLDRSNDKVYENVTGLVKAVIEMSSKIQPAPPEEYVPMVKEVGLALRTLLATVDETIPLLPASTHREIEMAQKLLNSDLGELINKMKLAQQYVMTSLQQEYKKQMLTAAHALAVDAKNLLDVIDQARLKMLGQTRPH
# procedure text: FAK-HiBiT Degradation Assay
# condition summary: JHH-4-FAK-HiBiT clone d01 cells; two hours incubation; 10-point dose response, 3-fold dilution starting at 1 μM; Nano-Glo HiBiT luminescence
observation type: EC50
A bare number is not enough; add the unit after it.

Sample answers from the record:
CN(c1cc(-c2ncc(C(F)(F)F)cc2Cl)c2cnn(Cc3ccc4c(c3)CN([C@H]3CCC(=O)NC3=O)C4=O)c2n1)C1CC(O)C1 (stereo partly drawn) | 4.29 nM
CN(C)c1cc(-c2ncc(C#N)cc2Cl)c2c(n1)N(Cc1ccc3c(c1)CN(C1CCC(=O)NC1=O)C3=O)CC2 (stereo not drawn) | 14.6 nM

Now for a further compound.
Prompt line: Jot down EC50 (FAK (Homo sapiens, UniProt Q05397)) of CN(C)c1cc(-c2ncc(C#N)cc2Cl)c2ccn(Cc3ccc4c(c3)CN(C3CCC(=O)NC3=O)C4=O)c2n1 (stereo not drawn) .
Response line: 7.86 nM

----------
# study system: FAK (Homo sapiens)
# Construct: homozygous knock-in of a HiBiT tag (Promega Corporation, Madison, WI) to the C-terminus of the FAK gene in its natural genomic locus; endogenous in cells; host or cells: JHH-4-FAK-HiBiT clone d01 (CRISPR-Cas9 knock-in at the endogenous locus)
# procedure text: FAK-HiBiT Degradation Assay
# Format: cell-based
# condition summary: JHH-4-FAK-HiBiT clone d01 cells; two hours incubation; 10-point dose response, 3-fold dilution starting at 1 μM; Nano-Glo HiBiT luminescence; read-out: FAK HiBiT EC50
This section presents compounds with their documented log10 of DC50 values.
Values reflect log10 of reported DC50 (µM).

O=C1CCC(N2Cc3cc(Cn4ncc5c(-c6ccc(C7(O)CCOCC7)cn6)cc(N6CC(F)C6)nc54)ccc3C2=O)C(=O)N1 (stereo not drawn) [Example 122] | -1.01
Cc1cc(F)cnc1-c1cc(N2CC[C@H](O)C2)nc2c1cnn2Cc1ccc2c(c1)CN([C@H]1CCC(=O)NC1=O)C2=O [Example 125] | -0.83
O=C1CCC(N2Cc3cc(Cn4ncc5c(-c6ncc(C(F)(F)F)cc6Cl)cc(NC6CC6)nc54)ccc3C2=O)C(=O)N1 (stereo not drawn) [Example 98] | -1.61
O=C1CCC(N2Cc3cc(Cn4ncc5c(-c6ncc(C(F)(F)F)cc6Cl)cc(NC6COC6)nc54)ccc3C2=O)C(=O)N1 (stereo not drawn) [Example 126] | -0.77
C[C@]1(O)CCN(c2cc(-c3ccc(C#N)cc3F)c3cnn(Cc4ccc5c(c4)CN(C4CCC(=O)NC4=O)C5=O)c3n2)C1 (stereo partly drawn) [Example 115] | -1.19

Moving on to the next compound.
Prompt line: For the compound N#Cc1ccc(-c2c(F)c(N3CC(F)C3)nc3c2cnn3Cc2ccc3c(c2)CN(C2CCC(=O)NC2=O)C3=O)c(F)c1 (stereo not drawn) [Example 41] , give its reported log10 of DC50.
Response line: -2.91

----------
# study system: FAK (Homo sapiens)
# Construct: homozygous knock-in of a HiBiT tag (Promega Corporation, Madison, WI) to the C-terminus of the FAK gene in its natural genomic locus; endogenous in cells; host or cells: JHH-4-FAK-HiBiT clone d01 (CRISPR-Cas9 knock-in at the endogenous locus)
# procedure text: FAK-HiBiT Degradation Assay
# Assay type: cell-based
# condition summary: lower limit of the four parameter fit (value A); Ymax derived using DMSO control; JHH-4-FAK-HiBiT cells, two hours
Overview of reported FAK HiBiT Ymin across a group of compounds:

Some solved entries appear below for comparison.
O=C1CC[C@H](N2Cc3cc(Cn4ncc5c(-c6ccc(OCC(F)(F)F)cc6Cl)cc(N6CC(F)C6)nc54)ccc3C2=O)C(=O)N1 | 8.38
Cc1cc(C#N)cnc1-c1cc(N2CC(F)C2)nc2c1cnn2Cc1ccc2c(c1)CN(C1CCC(=O)NC1=O)C2=O (stereo not shown) | 8.03
O=C1CCC(N2Cc3cc(Cn4ncc5c(-c6ncc(C(F)(F)F)cc6Cl)cc(N6CC(F)C6)nc54)ccc3C2=O)C(=O)N1 (stereo not shown) | 8.98
N#Cc1ccc(-c2cc(N3CCC3)nc3c2cnn3Cc2ccc3c(c2)CN(C2CCC(=O)NC2=O)C3=O)c(Cl)c1 (stereo not shown) | 7.90
C[C@]1(O)CCN(c2nc3c(cnn3Cc3ccc4c(c3)CN([C@H]3CCC(=O)NC3=O)C4=O)c(-c3ncc(C(F)(F)F)cc3Cl)c2F)C1 | 9.35
O=C1CCC(N2Cc3cc(Cn4ncc5c(-c6ncc(F)cc6F)cc(N6CC(F)C6)nc54)ccc3C2=O)C(=O)N1 (stereo not shown) | 17.03

Now for another entry.
Prompt line: With FAK (Homo sapiens) as the test system, provide measured FAK HiBiT Ymin for this compound: COc1cnc(-c2cc(N3CC(F)C3)nc3c2cnn3Cc2ccc3c(c2)CN(C2CCC(=O)NC2=O)C3=O)c(C)c1 (stereo not shown)
Response line: 12.95
